- Tested on: Escherichia coli TOP10;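 note: peptides expressed intracellularly from a pBAD plasmid library in pooled LB shake-flask culture, induced with 0.3% L-arabinose, DNA abundance read by NGS, three biological replicates, DESeq2 with apeglm shrinkage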
- TEST_PROTOCOL: shrunken log2 fold change of peptide-encoding DNA abundance (4.5 h post-induction vs induction); higher = less antimicrobial activity (less host growth inhibition)
- CONDITION_SET: time post-induction: 4.5 h; library: site-saturation at positions 5, 18, 19, 20
# shrunken log2 fold change per entry
// keep it numeric: no unit symbol after the value

# annotated cases, reported shrunken log2 fold change shown
RRIRVRPPRLPRPRPRPRDIPRP; -0.0591
RRIRFRPPRLPRPRPRPASMPRP; -0.146
RRIRYRPPRLPRPRPRPYPGPRP; -0.379

The sequence RRIRVRPPRLPRPRPRPTLEPRP showed shrunken log2 fold change equal to 0.413
